Data export: pIC50 values recorded with Human cytomegalovirus (HCMV) DNA polymerase (Human cytomegalovirus, UniProt P08546).
Sequence (P08546 whole entry): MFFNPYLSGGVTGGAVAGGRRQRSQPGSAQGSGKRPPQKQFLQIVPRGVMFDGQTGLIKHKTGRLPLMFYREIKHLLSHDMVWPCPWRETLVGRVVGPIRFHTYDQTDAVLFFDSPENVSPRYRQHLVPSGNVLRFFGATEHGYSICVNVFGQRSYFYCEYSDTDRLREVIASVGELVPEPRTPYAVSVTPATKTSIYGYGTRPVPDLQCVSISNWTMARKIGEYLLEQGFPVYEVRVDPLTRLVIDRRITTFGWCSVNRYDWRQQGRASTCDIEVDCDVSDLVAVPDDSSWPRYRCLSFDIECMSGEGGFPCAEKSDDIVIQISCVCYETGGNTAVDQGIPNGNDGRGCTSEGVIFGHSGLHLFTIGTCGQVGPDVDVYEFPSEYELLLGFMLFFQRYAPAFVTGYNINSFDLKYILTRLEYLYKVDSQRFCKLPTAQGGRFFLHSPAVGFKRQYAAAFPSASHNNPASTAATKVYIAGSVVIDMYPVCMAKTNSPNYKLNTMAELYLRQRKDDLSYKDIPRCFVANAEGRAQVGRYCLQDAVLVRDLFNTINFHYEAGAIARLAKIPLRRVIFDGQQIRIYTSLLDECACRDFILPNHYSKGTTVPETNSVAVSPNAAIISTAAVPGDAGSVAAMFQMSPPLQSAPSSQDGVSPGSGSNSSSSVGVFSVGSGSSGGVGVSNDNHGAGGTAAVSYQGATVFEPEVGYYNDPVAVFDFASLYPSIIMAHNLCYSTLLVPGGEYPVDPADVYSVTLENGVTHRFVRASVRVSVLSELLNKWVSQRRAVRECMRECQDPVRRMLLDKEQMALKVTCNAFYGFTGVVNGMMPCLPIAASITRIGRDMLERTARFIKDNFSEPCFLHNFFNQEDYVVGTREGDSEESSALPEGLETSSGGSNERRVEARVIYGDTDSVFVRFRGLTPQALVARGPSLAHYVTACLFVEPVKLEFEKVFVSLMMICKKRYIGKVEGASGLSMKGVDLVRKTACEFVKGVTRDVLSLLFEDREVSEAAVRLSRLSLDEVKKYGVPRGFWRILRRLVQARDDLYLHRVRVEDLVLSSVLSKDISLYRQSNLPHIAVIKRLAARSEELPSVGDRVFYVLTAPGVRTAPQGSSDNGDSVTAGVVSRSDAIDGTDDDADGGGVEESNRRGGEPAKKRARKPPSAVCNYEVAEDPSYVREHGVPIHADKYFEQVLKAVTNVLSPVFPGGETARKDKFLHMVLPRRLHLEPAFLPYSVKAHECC
Answers are plain numbers, as −log10 of the molar value.

A selection of reference data follows.
Param item = `Cn1nc(C(=O)NCc2ccc(Cl)cc2)c2c1CCN(C[C@H]1CCC(=O)N1)CC2` ; retrieve measured pIC50. 6.12

Param item = `Cc1nnn(C)c1CN1CCc2c(C(=O)NCc3ccc(Cl)cc3)nn(C)c2CC1` ; retrieve measured pIC50. 6.09

Field: next compound
Param item = `Cn1nc(C(=O)NCc2ccc(Cl)cc2)c2c1CCN(C[C@H]1COC(=O)N1)CC2` ; retrieve measured pIC50. 6.10

The values you see were collected from patent US12552802B2.
